// pIC50 lookup, one value per entry
System: human Cav3.1 Cav3.2 or Cav3.3 channel
Experiment: In vitro assay T channel (FLIPR calcium fluorescence)
Assay type: cell-based
Settings: HEK293 cells expressing human Cav3.1, Cav3.2 or Cav3.3; 10 mM Ca2+-induced fluo-4 fluorescence; determined up to 10 μM; read-out: T channel antagonistic activity IC50
pIC50: −log10 of the molar value.
measured parameter: pIC50

compound="CC(C)C(=O)O[C@@]1(CCN(C)CCCc2nc(-c3ccccc3)c(-c3ccccc3)[nH]2)C[C@H]2CC[C@@H]1C=C2c1ccccc1 (relative stereo) [Example 47A]" study_system="human Cav3.1 Cav3.2 or Cav3.3 channel" measured_parameter=pIC50 measured_number=5.10
compound="CC(=O)Nc1cccc2[nH]c(CCCN(C)CC[C@]3(OC(=O)C(C)C)C[C@H]4CC[C@@H]3C=C4c3ccccc3)nc12 (relative stereo) [Example 56A]" study_system="human Cav3.1 Cav3.2 or Cav3.3 channel" measured_parameter=pIC50 measured_number=5.60
compound="CO[C@]1(c2ccccc2)C[C@H]2CC[C@@H]1C[C@]2(CCN(C)CCCc1nc2ccccc2[nH]1)OC(=O)C(C)C (relative stereo) [Example 76A]" study_system="human Cav3.1 Cav3.2 or Cav3.3 channel" measured_parameter=pIC50 measured_number=5.67

###

Tested on: human Cav3.1 Cav3.2 or Cav3.3 channel
Test: In vitro assay T channel (FLIPR calcium fluorescence)
Assay type: cell-based
Conditions: HEK293 cells expressing human Cav3.1, Cav3.2 or Cav3.3; 10 mM Ca2+-induced fluo-4 fluorescence; determined up to 10 μM; read-out: T channel antagonistic activity IC50
measured parameter: IC50

compound="CC1=C(c2ccccc2)[C@H]2CC[C@@H]1C[C@@]2(CCN(C)CCCc1nc2ccccc2[nH]1)OC(=O)C(C)C (relative stereo) [Example 17C]" study_system="human Cav3.1 Cav3.2 or Cav3.3 channel" result="0.55 µM"
compound="CN(CCCc1cnc2occc2c1)CC[C@]1(O)C[C@H]2CC[C@@H]1C=C2c1ccccc1 (relative stereo)" study_system="human Cav3.1 Cav3.2 or Cav3.3 channel" result="> 10 µM"
compound="COC(C)(C)C(=O)NCCCN(C)CC[C@]1(O)C[C@H]2CC[C@@H]1C=C2c1ccccc1 (relative stereo)" study_system="human Cav3.1 Cav3.2 or Cav3.3 channel" result="> 10 µM"
compound="COCCOc1cccc2[nH]c(CCCN(C)CC[C@]3(OC(=O)C(C)C)C[C@H]4CC[C@@H]3C=C4c3ccccc3)nc12 (relative stereo) [Example 63A]" study_system="human Cav3.1 Cav3.2 or Cav3.3 channel" result="1.44 µM"
compound=CN(CCCc1nc2ccccc2[nH]1)CC[C@@]1(O)C[C@@H]2CC[C@H]1CN2c1ccccc1 study_system="human Cav3.1 Cav3.2 or Cav3.3 channel" result="6.07 µM"
compound="COc1cc2nc(CCCN(C)CC[C@]3(OC(=O)C(C)C)C[C@H]4CC[C@@H]3C=C4c3ccccc3)[nH]c2cc1OC (relative stereo) [Example 28A]" study_system="human Cav3.1 Cav3.2 or Cav3.3 channel" result="3.46 µM"
compound="COc1cccc2nc(CCN(C)CC[C@]3(O)C[C@H]4CC[C@@H]3C=C4c3ccccc3)[nH]c12 (relative stereo)" study_system="human Cav3.1 Cav3.2 or Cav3.3 channel" result="1.48 µM"
compound="CN(CCc1nc2ccccc2[nH]1)CC[C@]1(O)C[C@H]2CC[C@@H]1C=C2c1ccccc1 (relative stereo)" study_system="human Cav3.1 Cav3.2 or Cav3.3 channel" result="2.73 µM"
compound="CC(C)C(=O)O[C@]1(CCN(C)CCCc2nc3ccccc3[nH]2)C[C@@H]2CC[C@H]1CN2c1ccccc1 [Example 74A]" study_system="human Cav3.1 Cav3.2 or Cav3.3 channel" result="8.6 µM"

###

Tested on: human Cav3.1 Cav3.2 or Cav3.3 channel
Test: In vitro assay T channel (FLIPR calcium fluorescence)
Format: cell-based
Details: HEK293 cells expressing human Cav3.1, Cav3.2 or Cav3.3; 10 mM Ca2+-induced fluo-4 fluorescence; determined up to 10 μM; read-out: T channel antagonistic activity IC50
pIC50: −log10 of the molar value.
measured parameter: pIC50

molecule="COc1ccc2[nH]c(CCCN(C)CC[C@]3(O)C[C@H]4CC[C@@H]3C=C4c3ccccc3)nc2c1 (relative stereo)" study_system="human Cav3.1 Cav3.2 or Cav3.3 channel" value_modifier=< measured_number=5.00
molecule="CC(C)Oc1cccc2nc(CCCN(C)CC[C@]3(OC(=O)C(C)C)C[C@H]4CC[C@@H]3C=C4c3ccccc3)[nH]c12 (relative stereo) [Example 33A]" study_system="human Cav3.1 Cav3.2 or Cav3.3 channel" value_modifier== measured_number=5.78
molecule="COc1cccc2[nH]c(CCCN(C)CC[C@]3(OC(=O)NC(C)C)C[C@H]4CC[C@@H]3C=C4c3ccccc3)nc12 (relative stereo) [Example 26E]" study_system="human Cav3.1 Cav3.2 or Cav3.3 channel" value_modifier== measured_number=5.95
molecule="COc1ccc2[nH]c(CCCN(C)CC[C@]3(OC(=O)C(C)C)C[C@H]4CC[C@@H]3C=C4c3ccccc3)nc2c1 (relative stereo) [Example 29A]" study_system="human Cav3.1 Cav3.2 or Cav3.3 channel" value_modifier== measured_number=5.35
molecule="CC(C)C(=O)O[C@@]1(CCN(C)CCCc2nc3ccccc3[nH]2)C[C@H]2CC[C@@H]1C=C2c1cccc(F)c1 (relative stereo)" study_system="human Cav3.1 Cav3.2 or Cav3.3 channel" value_modifier== measured_number=5.50
molecule="Cc1cc2cc(CCCN(C)CC[C@]3(OC(=O)C(C)C)C[C@H]4CC[C@@H]3C=C4c3ccccc3)cnc2o1 (relative stereo) [Example 42A]" study_system="human Cav3.1 Cav3.2 or Cav3.3 channel" value_modifier=< measured_number=5.00

###

Test system: human Cav3.1 Cav3.2 or Cav3.3 channel
Assay: In vitro assay T channel (FLIPR calcium fluorescence)
Assay type: cell-based
Settings: HEK293 cells expressing human Cav3.1, Cav3.2 or Cav3.3; 10 mM Ca2+-induced fluo-4 fluorescence; determined up to 10 μM; read-out: T channel antagonistic activity IC50
pIC50: −log10 of the molar value.
Quick reference for pIC50 among some molecules
measured parameter: pIC50

molecule="COc1cccc2[nH]c(CCCN(C)CCC3(OC(=O)C(C)C)CC4CCC3C=C4c3ccccc3)nc12 (stereo not drawn) [Example 54A]" value_modifier== measured_number=5.94
molecule="COc1ccc(C2=C[C@H]3CC[C@@H]2C[C@]3(CCN(C)CCCc2nc3ccccc3[nH]2)OC(=O)C(C)C)cc1 (relative stereo) [Example 22A]" value_modifier== measured_number=5.16
molecule="COCC(C)(COC)C(=O)N(C)CCCN(C)CC[C@@]1(OC(=O)C(C)C)C[C@H]2CC[C@@H]1C(c1ccccc1)=C2C (relative stereo) [Example 53C]" value_modifier== measured_number=6.04
molecule="CC(C)C(=O)O[C@@]1(CCN(C)Cc2nc3ccccc3[nH]2)C[C@H]2CC[C@@H]1C=C2c1ccccc1 (relative stereo) [Example 14A]" value_modifier== measured_number=5.50
molecule="COc1ccc(C)c2nc(CCCN(C)CC[C@]3(OC(=O)C(C)C)C[C@H]4CCC[C@@H]3C=C4c3ccccc3)[nH]c12 (relative stereo) [Example 66A]" value_modifier== measured_number=6.17
molecule="CN(CCCc1nc2ccccc2[nH]1)CC[C@]1(O)C[C@H]2CC[C@@H]1C=C2c1nccs1 (relative stereo) [Example 24]" value_modifier=< measured_number=5.00

###

Collected pIC50 values appear next to each entry.
System: human Cav3.1 Cav3.2 or Cav3.3 channel
Test: In vitro assay T channel (FLIPR calcium fluorescence)
Assay type: cell-based
Conditions: HEK293 cells expressing human Cav3.1, Cav3.2 or Cav3.3; 10 mM Ca2+-induced fluo-4 fluorescence; determined up to 10 μM; read-out: T channel antagonistic activity IC50
Protocol: The T channel antagonistic activity (IC50 values) of the compounds of formula (I) is determined in accordance with the following experimental method and data are shown in Table 1. Human embryonic kidney (HEK293) cells expressing the human Cav3.1 Cav3.2 or Cav3.3 channel, respectively, are grown in culture medium (DMEM containing 10% heat-inactivated fetal calf serum (FCS), 100 U/ml penicillin, 100 μg/ml streptomycin and 1 mg/ml G418). […]
pIC50: −log10 of the molar value.
measured parameter: pIC50

compound="COc1cccc2[nH]c(CCCN(C)CC[C@]3(OC(=O)OC(C)C)C[C@H]4CC[C@@H]3C=C4c3ccccc3)nc12 (relative stereo) [Example 26G]" measured_parameter=pIC50 value_modifier== measured_number=6.03
compound="CC(C)C(=O)O[C@@]1(CCN(C)CCCc2cncc3ccccc23)C[C@H]2CC[C@@H]1C=C2c1ccccc1 (relative stereo) [Example 48A]" measured_parameter=pIC50 value_modifier=< measured_number=5.00
compound="CC(C)C(=O)O[C@@]1(CCN(C)CCCc2ccnc3ccccc23)C[C@H]2CC[C@@H]1C=C2c1ccccc1 (relative stereo) [Example 50A]" measured_parameter=pIC50 value_modifier=< measured_number=5.00
compound="CN(CC[C@]1(O)C[C@H]2CC[C@@H]1C=C2c1ccccc1)Cc1nc2ccccc2[nH]1 (relative stereo)" measured_parameter=pIC50 value_modifier== measured_number=5.05
compound="CCOc1ccc(CCN(CC)CC[C@]2(OC(=O)C(C)C)C[C@H]3CC[C@@H]2C=C3c2ccccc2)cc1OCC (relative stereo) [Example 38A]" measured_parameter=pIC50 value_modifier== measured_number=5.60
compound="CC(C)C(=O)O[C@@]1(CCN(C)CCCc2nc3ccccc3[nH]2)C[C@@H]2C=C[C@H]1CC2 (relative stereo) [Example 75A]" measured_parameter=pIC50 value_modifier== measured_number=5.75
